measured-target: human DGKζ (Homo sapiens)
Construct: TVMV protease cleavage site (C); Hexa-His (C); made in house; host or cells: Sf9 insect cells (baculovirus, Bac-to-Bac)
Sequence (Q13574 with tags, fused parts or gaps isoform Q13574-4): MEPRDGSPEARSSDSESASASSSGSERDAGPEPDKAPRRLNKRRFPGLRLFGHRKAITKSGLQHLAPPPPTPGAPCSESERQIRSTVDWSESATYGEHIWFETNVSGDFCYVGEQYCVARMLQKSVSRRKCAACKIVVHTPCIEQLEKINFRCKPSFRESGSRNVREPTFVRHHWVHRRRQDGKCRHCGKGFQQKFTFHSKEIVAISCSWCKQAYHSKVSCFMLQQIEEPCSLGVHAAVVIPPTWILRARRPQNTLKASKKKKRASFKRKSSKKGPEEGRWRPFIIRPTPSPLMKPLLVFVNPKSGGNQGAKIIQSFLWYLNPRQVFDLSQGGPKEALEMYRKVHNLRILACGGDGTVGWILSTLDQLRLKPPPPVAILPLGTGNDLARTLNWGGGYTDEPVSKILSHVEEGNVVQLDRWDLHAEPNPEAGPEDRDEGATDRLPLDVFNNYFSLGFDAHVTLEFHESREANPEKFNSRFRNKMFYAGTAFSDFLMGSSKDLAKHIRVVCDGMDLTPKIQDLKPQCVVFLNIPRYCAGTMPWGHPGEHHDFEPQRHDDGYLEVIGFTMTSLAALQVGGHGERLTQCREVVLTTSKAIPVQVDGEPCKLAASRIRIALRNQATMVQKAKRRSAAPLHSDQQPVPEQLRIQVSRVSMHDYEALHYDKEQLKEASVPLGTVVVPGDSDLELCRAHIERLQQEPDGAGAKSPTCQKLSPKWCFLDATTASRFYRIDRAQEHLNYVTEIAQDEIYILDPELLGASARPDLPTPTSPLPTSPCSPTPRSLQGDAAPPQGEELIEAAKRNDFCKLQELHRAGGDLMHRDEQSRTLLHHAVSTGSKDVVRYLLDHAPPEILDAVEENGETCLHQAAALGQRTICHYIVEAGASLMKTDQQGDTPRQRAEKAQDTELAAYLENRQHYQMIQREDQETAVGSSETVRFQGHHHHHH
assay-procedure: DGKζ LIPGLO assay (extruded liposome substrate), in vitro DGK inhibition
Format: biochemical
applied-conditions: liposome (LIPGLO) assay; read-out: DGKz LIPGLO IC50
# IC50 annotations

compound: Cc1cc(C(C)N2C[C@H](C)N(c3cc(=O)n(C)c4ccc(C#N)nc34)C[C@H]2C)no1 (single isomer, unassigned) [Example 648]
units-text: µM
IC50: 3.9
//
compound: COC(=O)C1CN(c2cc(=O)n(C)c3ccc(C#N)nc23)CCN1C(c1ccc(F)cc1)c1ccc(F)cc1OC (single isomer, unassigned) [Example 72]
units-text: µM
IC50: 0.76
//
compound: CC(c1ccc(OC(F)(F)F)cc1)N1C[C@H](C)N(c2cc(=O)n(C)c3ccc(C#N)nc23)C[C@H]1CN1CCOCC1 (single isomer, unassigned) [Example 1416]
units-text: µM
IC50: 52
//
compound: Cn1c(=O)cc(N2CCN(C(c3ccc(F)cc3)c3ccc(F)cc3)CC2C2CC2)c2nc(C#N)ccc21 (single isomer, unassigned) [Example 23]
units-text: µM
IC50: 100
//
compound: CC(c1ccc2nccnc2c1)N1C[C@H](C)N(c2cc(=O)n(C)c3ccc(C#N)nc23)C[C@H]1C (single isomer, unassigned) [Example 651]
units-text: µM
IC50: 0.95
//
compound: CC1C(C)N(C(c2ccc(F)cc2)c2ccc(F)cc2)CCN1c1cc(=O)n(C)c2ccc(C#N)nc12 (single isomer, unassigned) [Example 124]
units-text: µM
IC50: 15

###

measured-target: human DGKα (Homo sapiens, UniProt P23743)
Construct: TVMV protease cleavage site (C); Hexa-His (C); made in house; host or cells: Sf9 insect cells (baculovirus, Bac-to-Bac)
Sequence (P23743 with tags, fused parts or gaps): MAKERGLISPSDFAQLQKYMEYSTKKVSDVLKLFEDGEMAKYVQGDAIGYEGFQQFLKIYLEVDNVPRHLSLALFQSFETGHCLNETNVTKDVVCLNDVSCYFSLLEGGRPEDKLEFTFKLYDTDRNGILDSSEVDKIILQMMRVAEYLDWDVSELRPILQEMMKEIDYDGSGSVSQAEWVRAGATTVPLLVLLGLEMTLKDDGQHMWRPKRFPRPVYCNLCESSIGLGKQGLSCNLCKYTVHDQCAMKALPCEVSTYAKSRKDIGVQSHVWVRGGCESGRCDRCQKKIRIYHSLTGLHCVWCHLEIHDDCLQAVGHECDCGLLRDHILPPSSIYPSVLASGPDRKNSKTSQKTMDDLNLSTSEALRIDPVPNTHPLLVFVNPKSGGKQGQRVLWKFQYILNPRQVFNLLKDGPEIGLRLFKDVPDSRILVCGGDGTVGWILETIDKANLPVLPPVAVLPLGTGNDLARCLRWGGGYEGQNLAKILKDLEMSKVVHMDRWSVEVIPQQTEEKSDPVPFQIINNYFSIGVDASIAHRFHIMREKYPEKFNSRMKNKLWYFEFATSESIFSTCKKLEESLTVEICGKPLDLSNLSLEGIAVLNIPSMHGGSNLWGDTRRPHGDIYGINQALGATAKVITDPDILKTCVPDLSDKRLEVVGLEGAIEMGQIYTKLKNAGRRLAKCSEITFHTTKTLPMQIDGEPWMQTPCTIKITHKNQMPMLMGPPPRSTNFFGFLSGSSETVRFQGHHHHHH
assay-procedure: DGKα LIPGLO assay (extruded liposome substrate), in vitro DGK inhibition
Type: biochemical
applied-conditions: liposome (LIPGLO) assay; read-out: DGKa LIPGLO IC50
// assign True if IC50 falls strictly below 1000 nM, else False (ties count as False)

compound: C[C@@H]1CN(c2cc(=O)n(C)c3ccc(C#N)nc23)[C@@H](C)CN1C(c1ccc(F)cc1)c1c(F)cc(F)cc1F (single isomer, unassigned) [Example 693]
assigned-class: False

compound: Cc1ccc(C(c2ccc(Cl)cn2)N2C[C@H](C)N(c3cc(=O)n(C)c4ccc(C#N)nc34)C[C@H]2C)cc1 (single isomer, unassigned) [Example 199]
assigned-class: True

compound: C[C@@H]1CN(c2cc(=O)n(C)c3ccc(C#N)nc23)[C@@H](C)CN1C(c1ccc(F)cc1)c1c(F)cccc1F (single isomer, unassigned) [Example 274]
assigned-class: False

compound: CC[C@@H]1CN(c2cc(=O)n(C)c3ccc(C#N)nc23)[C@@H](C)CN1C(c1ccc(F)cc1)c1nc(C2CC2)cs1 (single isomer, unassigned) [Example 1338]
assigned-class: True

compound: CC(c1ccc(C(F)(F)F)cc1)N1C[C@@H](C)N(c2cc(=O)n(C)c3ccc(C#N)nc23)C[C@@H]1C (single isomer, unassigned) [Example 345]
assigned-class: False

compound: Cn1c(=O)cc(N2CCN(C(c3ccc(F)cc3)c3ccc(F)cc3)C(C#N)C2)c2nc(C#N)ccc21 (single isomer, unassigned) [Example 44]
assigned-class: False

compound: C[C@@H]1CN(c2cc(=O)n(C)c3ccc(C#N)nc23)[C@@H](C)CN1Cc1ccc(OC(F)(F)F)cc1C#N
assigned-class: False

compound: C[C@@H]1CN(c2c(C3CC3)c(=O)n(C)c3ccc(C#N)nc23)[C@@H](C)CN1C(c1ccc(F)cc1)c1ccc(F)cc1
assigned-class: False

compound: CC[C@@H]1CN(c2cc(=O)n(C)c3ccc(C#N)nc23)[C@@H](C)CN1C(c1cccc(F)c1)c1ccc(F)cn1 (single isomer, unassigned) [Example 1109]
assigned-class: True

compound: C[C@@H]1CN(c2cc(=O)n(C)c3ccc(C#N)nc23)[C@@H](C)CN1Cc1ccc(F)c(F)c1
assigned-class: True

compound: C[C@@H]1CN(c2cc(=O)n(C)c3ccc(C#N)nc23)[C@@H](C)CN1Cc1cc(F)c(F)c(F)c1
assigned-class: False

compound: Cc1nc(C(F)(F)F)ccc1CN1C[C@H](C)N(c2cc(=O)n(C)c3ccc(C#N)nc23)C[C@H]1C
assigned-class: False

###

measured-target: human DGKζ (Homo sapiens)
Construct: TVMV protease cleavage site (C); Hexa-His (C); made in house; host or cells: Sf9 insect cells (baculovirus, Bac-to-Bac)
assay-procedure: DGKζ LIPGLO assay (extruded liposome substrate), in vitro DGK inhibition
Assay type: biochemical
applied-conditions: liposome (LIPGLO) assay; read-out: DGKz LIPGLO IC50
Below: a set of entries, each annotated with reported IC50.

compound: CC[C@H]1CN(C(c2ccc(F)cc2)c2cscn2)[C@H](CC)CN1c1cc(=O)n(C)c2ccc(C#N)nc12 (single isomer, unassigned) [Example 1070]
IC50, nM: 180
//
compound: CCOC[C@@H]1CN(c2cc(=O)n(C)c3ccc(C#N)nc23)[C@@H](C)CN1C(c1ccc(F)cc1)c1ccc(C(F)(F)F)cn1 (stereo partly drawn) [Example 1403]
IC50, nM: 45
//
compound: C[C@@H]1CN(c2cc(=O)n(C)c3ccc(C#N)nc23)[C@@H](C)CN1C(c1ccc(Cl)cc1)c1ccc(Cl)cn1 (single isomer, unassigned) [Example 201]
IC50, nM: 790
//
compound: C[C@@H]1CN(c2cc(=O)n(C)c3ccc(C#N)nc23)[C@@H](C)CN1C(c1ccc(F)cn1)c1ccc(F)cn1
IC50, nM: 1000
//
compound: C[C@@H]1CN(c2cc(=O)n(C)c3ccc(C#N)nc23)[C@@H](C)CN1C(c1ccc(F)cc1)c1cccc2ccnn12 (single isomer, unassigned) [Example 694]
IC50, nM: 120
//
compound: C[C@@H]1CN(C(c2ccc(F)cc2)c2ccc(F)cc2)[C@@H](C)CN1c1c(C#N)c(=O)n(C)c2ccc(C#N)nc12
IC50, nM: 16000

###

measured-target: human DGKα (Homo sapiens, UniProt P23743)
Construct: TVMV protease cleavage site (C); Hexa-His (C); made in house; host or cells: Sf9 insect cells (baculovirus, Bac-to-Bac)
assay-procedure: DGKα LIPGLO assay (extruded liposome substrate), in vitro DGK inhibition
Format: biochemical
applied-conditions: DGKα liposome (LIPGLO) assay; read-out: DGKa LIPGLO IC50
reported-property: IC50

compound: C[C@@H]1CN(c2c(C#N)c(=O)n(C)c3ccc(C#N)nc23)[C@@H](C)CN1C(c1ccc(F)cc1)c1ccc(F)cn1 (stereo partly drawn) [Example 827]
result: 4400 nM
//
compound: Cc1ccc(C(c2cccc(Cl)c2)N2CCN(c3c(C#N)c(=O)n(C)c4ccc(C#N)nc34)C[C@H]2C)nc1 (single isomer, unassigned) [Example 928]
result: 2400 nM
//
compound: C[C@@H]1CN(c2c(C#N)c(=O)n(C)c3ccc(C#N)nc23)CCN1C(c1cccc(F)c1)c1ccc(C(F)(F)F)cn1 (single isomer, unassigned) [Example 948]
result: 600 nM

###

IC50 by entry:
measured-target: human DGKα (Homo sapiens)
Construct: TVMV protease cleavage site (C); Hexa-His (C); made in house; host or cells: Sf9 insect cells (baculovirus, Bac-to-Bac)
assay-procedure: DGKα LIPGLO assay (extruded liposome substrate), in vitro DGK inhibition
Assay type: biochemical
applied-conditions: liposome (LIPGLO) assay; read-out: DGKa LIPGLO IC50

compound: Cc1ccc(C(c2ccc(C#N)cc2)N2C[C@H](C)N(c3cc(=O)n(C)c4ccc(C#N)nc34)C[C@H]2C)nc1 (single isomer, unassigned) [Example 361]
measured-target: human DGKα (Homo sapiens)
units-text: nM
IC50: 210
//
compound: C[C@@H]1CN(c2cc(=O)n(C)c3ccc(C#N)nc23)[C@@H](C)CN1C(c1ccc(F)cn1)c1ccc(F)cc1F (single isomer, unassigned) [Example 684]
measured-target: human DGKα (Homo sapiens)
units-text: nM
IC50: 6.9
//
compound: CC(c1ccc(C#N)c(OCCN(C)C)c1)N1C[C@H](C)N(c2cc(=O)n(C)c3ccc(C#N)nc23)C[C@H]1C (single isomer, unassigned) [Example 1323]
measured-target: human DGKα (Homo sapiens)
units-text: nM
IC50: 130000
//
compound: Cc1ccc(C(c2ccc(F)cc2)N2C[C@H](C)N(c3cc(=O)n(C)c4ccc(C#N)nc34)C[C@H]2C)cc1 (single isomer, unassigned) [Example 251]
measured-target: human DGKα (Homo sapiens)
units-text: nM
IC50: 670
//
compound: Cc1ccc(C(c2cncc(F)c2)N2C[C@H](C)N(c3cc(=O)n(C)c4ccc(C#N)nc34)C[C@H]2C)cc1 (single isomer, unassigned) [Example 391]
measured-target: human DGKα (Homo sapiens)
units-text: nM
IC50: 3100
//
compound: CCC(c1ccc(OCC2CC2)cc1)N1C[C@H](C)N(c2cc(=O)n(C)c3ccc(C#N)nc23)C[C@H]1C (stereo partly drawn) [Example 1439]
measured-target: human DGKα (Homo sapiens)
units-text: nM
IC50: 200
